Origin of measurements: PubChem BioAssay (NCI)

Here, each record is paired with measured TGI data.
Tested on: HCT-15 colon
Assay: NCI tumour cell line growth inhibition, 48 h

Some solved entries appear below for comparison.
MOLECULE: CSC(=NCCCCN=C(NS(=O)(=O)c1ccc(Cl)cc1)SC)NS(=O)(=O)c1ccc(Cl)cc1
RECORDED METRIC: TGI
ENDPOINT VALUE: > 100 µM

MOLECULE: CC(=O)OCc1cc(OC(C)=O)cnc1COC(C)=O
RECORDED METRIC: TGI
ENDPOINT VALUE: > 100 µM

MOLECULE: C/C=C/C=N/N(C(=O)c1cc([N+](=O)[O-])cc([N+](=O)[O-])c1)C1=NC(c2ccccc2)C(c2ccccc2)=NN1 (stereo unspecified)
RECORDED METRIC: TGI
ENDPOINT VALUE: > 100 µM

MOLECULE: OCC1OC(Oc2cc(O)cc(/C=C\c3ccc(O)cc3)c2)C(O)C(O)C1O (stereo unspecified)
RECORDED METRIC: TGI
ENDPOINT VALUE: > 100 µM

MOLECULE: COC(=O)CCC(NC(=O)C(C)NC(=O)COC1C(O)C(OC(=O)CCNc2c3ccccc3nc3cccc([N+](=O)[O-])c23)OC(OCc2ccccc2)C1NC(C)=O)C(N)=O (stereo unspecified)
RECORDED METRIC: TGI
ENDPOINT VALUE: > 10 µM

// next entry
Short answer please: TGI, HCT-15 colon, entry CCOC(=O)/C(=C\NCC(OCC)OCC)c1nc2ccccc2[nH]1 51.8 µM

----------
Test system: BT-549 breast
Experiment: NCI tumour cell line growth inhibition, 48 h
Here, each record is paired with measured TGI data.

Some solved entries appear below for comparison.
COMPOUND: CCCCCCCCCCCCn1c(=O)cc(NCCCC)c2cc3c(NCCCC)cc(=O)n(CCCCCCCCCCCC)c3nc21
ENDPOINT VALUE: > 100 µM

COMPOUND: O=C(O)C(CSC(c1ccccc1)(c1ccccc1)c1ccccc1)N=Cc1cccs1 (stereo not given)
ENDPOINT VALUE: > 27.5 µM

COMPOUND: CC(=O)CCNc1ccc(-c2cc(-c3ccc(N(C)C)cc3)nc3ccc4ccccc4c23)cc1
ENDPOINT VALUE: > 100 µM

Quick check: TGI of Cc1ccc2c(c1)C(=O)C(Cc1ccccc1C(=O)O)C2 (stereo not given) ? > 100 µM

Quick check: TGI of COc1ccc(/C=C(\C#N)c2nc(N)nc(N3N=C(C)CC3(C)C)n2)c(O)c1 ? > 100 µM

Quick check: TGI of C=C(C)CC1=C(OCC)C(OC)(OCC)C1=O (stereo not given) ? > 100 µM

Quick check: TGI of CCc1ccc(Nc2cc(=O)[nH]c(SCc3ccccc3)n2)cc1 ? > 100 µM

Quick check: TGI of CCOC(=O)C(Cc1c2ccccc2cc2ccccc12)(NC(C)=O)C(=O)OCC ? > 100 µM

Quick check: TGI of CC1=C2C(=O)OCC23C=COC3(C)O1 (stereo not given) ? > 100 µM

Quick check: TGI of Cc1cc(O)c(C(c2cccnc2)c2c(O)cc(C)[nH]c2=O)c(=O)[nH]1 ? > 100 µM

Quick check: TGI of O=C1c2cc3c(cc2-c2c1c1ccc(Cl)cc1c(=O)n2C[C@H](O)[C@@H](O)[C@H](O)CO)OCO3 ? 1.36 µM

Quick check: TGI of CCCCCC(O)[C@H]1C(=O)C[C@@H](O[Si](C)(C)C(C)(C)C)[C@@H]1/C=C/CCOCc1ccccc1 (stereo not given in full) ? 21.3 µM

Quick check: TGI of O=C(Nc1n[nH]c2nc(-c3ccco3)ccc12)C1CC1 ? > 25 µM

Quick check: TGI of COc1ccc(-c2nn(-c3cccc(NC(=O)Nc4ccc(Cl)c(C(F)(F)F)c4)c3)cc2-c2ccncc2)cc1Cl ? 4.83 µM

----------
Here, each record is paired with measured TGI data.
Tested on: UACC-257 melanoma
Experiment: NCI tumour cell line growth inhibition, 48 h

MOLECULE: C[C@@H](CO)OCOCc1ccccc1
TGI: > 100 µM

MOLECULE: Nc1ccccc1N/C(=C\C(=O)C(Cl)(Cl)Cl)c1ccccc1
TGI: 79.1 µM

MOLECULE: O=C(O)C1NCCc2c1[nH]c1ccccc21 (stereo unspecified)
TGI: > 100 µM

MOLECULE: N/C(=N\N=C\c1cccs1)NO
TGI: > 100 µM

MOLECULE: O=c1cc(-c2ccc(Cl)cc2)[nH]c2ncccc12
TGI: > 100 µM

MOLECULE: CN1CCC[C@@H]1CCO[C@](C)(c1ccccc1)c1ccc(Cl)cc1
TGI: 4.17 µM

MOLECULE: COc1ccc(-c2cnc3ccnn3c2-c2cc(OC)c(OC)c(OC)c2)cc1
TGI: > 100 µM

MOLECULE: CCOC(=O)n1[nH]c(=O)n(-c2ccccc2)c1=O
TGI: > 100 µM

MOLECULE: OCC1NCC(O)C(O)C1O (stereo unspecified)
TGI: > 100 µM

MOLECULE: C[C@]12CCC(=O)C=C1CC[C@@H]1[C@@H]2[C@@H](O)C[C@@]2(C)[C@H]1CC[C@]2(O)C(=O)CO
TGI: > 100 µM

Short answer please: TGI, UACC-257 melanoma, entry Cn1c(=O)c2c(no[n+]2[O-])n(C)c1=O 84.6 µM

Short answer please: TGI, UACC-257 melanoma, entry COc1ccccc1C(C1=C(O)COC1=O)c1cc2c(cc1OC(C)=O)OCO2 (stereo unspecified) > 100 µM

Short answer please: TGI, UACC-257 melanoma, entry CCOC(=O)c1c(-c2ccccc2)[n+](=O)c2ccc(Cl)cc2n1[O-] 16.6 µM

Short answer please: TGI, UACC-257 melanoma, entry N#CC(c1ccccc1)N1CCCN(C(C#N)c2ccccc2)C1c1ccccc1O (stereo unspecified) > 100 µM

Short answer please: TGI, UACC-257 melanoma, entry O=[N+]([O-])c1cc(CCl)ccc1CCl > 20.1 µM

Short answer please: TGI, UACC-257 melanoma, entry Cc1c2c(nn1C(=O)c1nn(-c3ccc(Cl)cc3)cc1O)-c1ccccc1CC2 9.73 µM

----------
Tested on: HOP-62 NSCLC
Assay: NCI tumour cell line growth inhibition, 48 h
RECORDED METRIC: TGI

Some solved entries appear below for comparison.
MOLECULE: COc1ccc(CNC2=C(NC(C)=O)C(=O)c3ccccc3C2=O)cc1
TGI: > 50 µM

MOLECULE: CC(C)NCC(O)COC(=O)c1cccs1 (stereo not drawn)
TGI: > 100 µM

MOLECULE: NCC#CCNCCCN1CC1
TGI: > 100 µM

Short answer please: TGI, HOP-62 NSCLC, entry C=CCNC(=S)N1c2ccccc2NC(=O)CC1C (stereo not drawn) > 100 µM

Short answer please: TGI, HOP-62 NSCLC, entry N#CC1=C(S)N(C2OC(CO)C(O)C(O)C2O)C(c2ccccc2)=CC1c1ccccc1 (stereo not drawn) > 100 µM

Short answer please: TGI, HOP-62 NSCLC, entry CN(c1ccccc1)S(=O)(=O)c1ccccc1[N+](=O)[O-] > 100 µM

Short answer please: TGI, HOP-62 NSCLC, entry Cn1c(=O)[nH]c2[nH]c3ccccc3c2c1=O > 100 µM

Short answer please: TGI, HOP-62 NSCLC, entry NC1=C(Cl)C(=O)c2ccc(S(N)(=O)=O)cc2C1=O 0.596 µM

Short answer please: TGI, HOP-62 NSCLC, entry CCCN1CN(C(C(=O)N[C@@H]2C(=O)N3C2SC(C)(C)C3C(=O)O)c2ccccc2)CSC1=S (stereo partly drawn) > 100 µM

Short answer please: TGI, HOP-62 NSCLC, entry COc1cccc2c(NNc3ccccc3)c3ccc([N+](=O)[O-])cc3nc12 > 100 µM

----------
System: IGROV1 ovarian
RECORDED METRIC: GI50

Some solved entries appear below for comparison.
SMILES CODE: Cc1n[nH]c(=S)n1/N=C/c1ccc(F)c(Oc2ccccc2)c1
GI50: 62.3 µM
--
SMILES CODE: N.N.N.N.N.N.[I-].[Os]
GI50: > 100 µM
--
SMILES CODE: COc1ccc(/C(C)=C(\c2ccc(Cl)cc2)c2ccc(OCCN3CCCC3)cc2)cc1F
GI50: 3.17 µM

Short answer please: GI50, IGROV1 ovarian, entry CN(C)CCCN(c1nc(C(Cl)(Cl)Cl)ns1)c1nc(C(Cl)(Cl)Cl)ns1 2.27 µM

Short answer please: GI50, IGROV1 ovarian, entry Clc1cc(Cl)c(Cl)c(-c2nc(-c3cccnc3)cs2)c1 32.8 µM

Short answer please: GI50, IGROV1 ovarian, entry COc1ccc(N(CC(=O)NCCC[Te]c2ccccc2)C(=O)CCSC2=C(C)C(=O)c3ccccc3C2=O)cc1 0.888 µM

Short answer please: GI50, IGROV1 ovarian, entry CCOC(=O)c1ccc(N(CCOS(C)(=O)=O)CCOS(C)(=O)=O)cc1C 91.4 µM

Short answer please: GI50, IGROV1 ovarian, entry COc1ccc(-c2nn(-c3cccc(NC(=O)Nc4ccc(Cl)c(C(F)(F)F)c4)c3)cc2-c2ccncc2)cc1Cl 3.65 µM

Short answer please: GI50, IGROV1 ovarian, entry COc1cc(/C=C/C(=O)c2ccc(Nc3ncnc4ccccc34)cc2)cc(OC)c1 13.5 µM
